Assay: Plasma quercetin in trial subjects (HPLC)
Assay type: in vivo
Details: human, oral
ENDPOINT NAME: concentration at 1 week after end of supplementation

COMPOUND	REPORTED
O=c1c(O)c(-c2ccc(O)c(O)c2)oc2cc(O)cc(O)c12 [quercetin, 3,5,7,3′,4′-pentahydroxyflavone]	190 ng/mL

* * *

Assay: Plasma quercetin in trial subjects (HPLC)
Format: in vivo
Details: human, oral, 730 mg/day for 4 weeks, fasted, 235±35 after placebo

COMPOUND	concentration at 4 weeks (ng/mL)
O=c1c(O)c(-c2ccc(O)c(O)c2)oc2cc(O)cc(O)c12 [quercetin, 3,5,7,3′,4′-pentahydroxyflavone]	480
